- ASSAY METHOD TEXT: TLR3 IRF3 reporter activation blockers – cell-based, poly I:C stimulus, luciferase, 10K MLSCN set, primary screen (AID 602277)
- RUN PARAMETERS: HEK293-TLR3 RL24 IRF3 luciferase reporter, at 10 µM, active compounds read high
inhibition listing for selected compounds.

- COMPOUND: "COc1ccc(CN(C(=O)c2ccccc2OC)C2CCS(=O)(=O)C2)cc1 (stereo not given)"
  inhibition (%): 23.7
- COMPOUND: "CCS(=O)(=O)N1CCC(C(=O)NC2CCCCC2)CC1"
  inhibition (%): 16
- COMPOUND: "CC(=O)N1CCc2cc(S(=O)(=O)NC(CC(C)C)C(=O)N3CCn4c3nc3ccccc34)ccc21 (stereo not given)"
  inhibition (%): 9.41
- COMPOUND: "CCOc1cccc(C(=O)Nc2cccc(-c3nc4ncccc4o3)c2C)c1"
  inhibition (%): -11.2
- COMPOUND: "CC(NC(=O)OCc1ccccc1)C(=O)N1CC(O)CC1C(=O)O (stereo not given)"
  inhibition (%): 22.2
- COMPOUND: "O=C(O)c1cc2c([nH]c1=O)CCCC2"
  inhibition (%): 24.4
- COMPOUND: "O=c1[nH]c(=O)n([C@H]2C[C@H](O)[C@@H](CO)O2)cc1F"
  inhibition (%): 15.4
- COMPOUND: "CN(Cc1ccccc1)Cc1nc2c([nH]1)c(=O)[nH]c(=O)n2C"
  inhibition (%): 14.7
- COMPOUND: "COC(=O)c1c(NC(=O)C2CC=CCC2C(=O)O)sc(C(N)=O)c1C (stereo not given)"
  inhibition (%): 11
- COMPOUND: "Cc1ccc2cc(CN(CC(C)C)C(=O)C3CCCO3)c(=O)[nH]c2c1 (stereo not given)"
  inhibition (%): 26.4
- COMPOUND: "N#Cc1c(SCC(=O)N2CCOCC2)nsc1SCC(=O)N1CCOCC1"
  inhibition (%): 4.99
- COMPOUND: "O=C1CC(c2ccco2)CC(O)=C1C=NCC1NCCc2ccccc21 (stereo not given)"
  inhibition (%): 27.2
- COMPOUND: "COc1ccc(CNC(=O)c2cc(-c3ccc(OC)c(OC)c3)on2)cc1"
  inhibition (%): -6.13
- COMPOUND: "CN1C(=O)CSc2ccc(NC(=O)N3CCN(c4ccccn4)CC3)cc21"
  inhibition (%): 21.6
- COMPOUND: "O=C(CNC(=O)c1cccs1)NCCN1CCN(c2ccccc2F)CC1"
  inhibition (%): 17.5
- COMPOUND: "CC(=O)Nc1c(I)c(NC(C)=O)c(I)c(C(=O)O)c1I"
  inhibition (%): 5.34
- COMPOUND: "CCSc1nc(-c2ccc(OC)cc2)ccc1C#N"
  inhibition (%): 7.27
- COMPOUND: "N#CC1=C(N)Oc2n[nH]c(-c3ccncc3)c2C1c1ccsc1 (stereo not given)"
  inhibition (%): -6.52
- COMPOUND: "CCOC(=O)c1cccc(NC(=O)Cn2cnc3c2c(=O)n(C)c(=O)n3C)c1"
  inhibition (%): -6.74
- COMPOUND: "C/C(CC(O)(/C=N/O)c1ccccc1)=N\\O (stereo not given)"
  inhibition (%): 15.7
- COMPOUND: "CC(C)CC(c1nnnn1C1CCCC1)N1CCN(c2ccccc2F)CC1 (stereo not given)"
  inhibition (%): 26.4
- COMPOUND: "CN(C)S(=O)(=O)n1cnc(-c2ccccc2)c1-c1ccccc1"
  inhibition (%): 20.5
- COMPOUND: "CN1CCCc2cc(C#N)c(=O)[nH]c21"
  inhibition (%): 14
- COMPOUND: "CC(=O)N[C@@H](CS)C(=O)O"
  inhibition (%): 21
- COMPOUND: "CCC(c1nnc(SCC(=O)NCC2CCCO2)n1Cc1ccccc1)N(C)C (stereo not given)"
  inhibition (%): 25.8
- COMPOUND: "CC(C(=O)N1CCOCC1)N1c2cccc3cccc(c23)S1(=O)=O (stereo not given)"
  inhibition (%): 20.6
- COMPOUND: "O=C(CSc1nnc2scc(-c3ccccc3)n12)N1CCN(Cc2ccccc2)CC1"
  inhibition (%): 7.98
- COMPOUND: "COc1ccc(N2CCN(C(c3cccc(OC)c3OC)c3nnnn3C3CCCC3)CC2)cc1 (stereo not given)"
  inhibition (%): 21.9
- COMPOUND: "Cc1nc2cc(NC(=O)N3CC4(C)CC3CC(C)(C)C4)ccc2n1C (stereo not given)"
  inhibition (%): 16.4
- COMPOUND: "CC(=O)Oc1cccc(/C=c2\\sc3nc(-c4ccco4)nn3c2=O)c1"
  inhibition (%): 16.1
- COMPOUND: "Cc1cccc(OCC(=O)N2CCC(c3ccccc3)C2)c1 (stereo not given)"
  inhibition (%): -177
- COMPOUND: "FC(F)(F)C(F)(F)C(F)(F)c1nnc2ccc(N3CCOCC3)nn12"
  inhibition (%): -3.61
- COMPOUND: "CCOC(=O)C(NC(=O)C1CCCN1C(=O)OCc1ccccc1)C(=O)OCC (stereo not given)"
  inhibition (%): 32
- COMPOUND: "Nc1nnc(SCC(=O)N2CCc3ccccc32)n1-c1ccccc1"
  inhibition (%): 27.2
- COMPOUND: "O=c1[nH]c2ccc(S(=O)(=O)N3CCN(C4CCCCC4)CC3)cc2[nH]c1=O"
  inhibition (%): 6.71
- COMPOUND: "COc1cc(C(N)=O)ccc1OCc1ccccc1"
  inhibition (%): -32.5
- COMPOUND: "CCc1ccccc1N=C1SCC(=O)N1C"
  inhibition (%): 13.2
- COMPOUND: "Cn1cc(CC(=O)Nc2cccc(C#N)c2)c2ccccc21"
  inhibition (%): -0.551
- COMPOUND: "Cc1[nH]c(=O)[nH]c(=O)c1S(=O)(=O)Nc1ccc(Oc2ccccc2)cc1"
  inhibition (%): 24.8
- COMPOUND: "CCSCCC(NC1=CC(=O)CC(C)(C)C1)C(=O)O (stereo not given)"
  inhibition (%): 98.7
- COMPOUND: "COC(=O)c1ccccc1S(=O)(=O)N(CCCN1CCOCC1)Cc1cccs1"
  inhibition (%): 19.2
- COMPOUND: "CSc1cccc(NC(=O)C2CCN(S(C)(=O)=O)CC2)c1"
  inhibition (%): 13.6
- COMPOUND: "CCN(C(=O)CN1CCN(c2ccccc2OC)CC1)c1c(N)n(Cc2ccccc2)c(=O)[nH]c1=O"
  inhibition (%): 25.4
- COMPOUND: "COCCCNC(=O)CCc1nc2cccnc2n1Cc1ccc(OC)cc1"
  inhibition (%): 1.17
- COMPOUND: "CCCCn1c(SCC(=O)c2ccc3c(c2)OCCO3)nnc1-c1ccco1"
  inhibition (%): 12.4
